Test system: MOLT-4 leukemia
assay-remarks: NCI tumour cell line growth inhibition, 48 h

{"compound": "COc1cc[n+](C)cc1", "TGI": "> 100 µM"}
{"compound": "Cc1cccc(C(O)c2ccncc2)c1O (stereo unspecified)", "TGI": "> 100 µM"}
{"compound": "COCCOCCOC1=C(Cl)C(=O)c2c(O)ccc(O)c2C1=O", "TGI": "2.37 µM"}
{"compound": "COc1ccc(CC(C)N)cc1 (stereo unspecified)", "TGI": "> 100 µM"}
{"compound": "CSC1=C(c2ccc(Cl)cc2)SC(N2CCCCC2)N1c1ccc([N+](=O)[O-])cc1 (stereo unspecified)", "TGI": "75.9 µM"}
{"compound": "Cc1cc2c(c(C=NCc3ccccc3)c1)OC1(C=C2)Oc2ccccc2C(=O)N1C (stereo unspecified)", "TGI": "36.5 µM"}
{"compound": "CN=S(=O)(c1ccccc1)c1ccccc1", "TGI": "> 100 µM"}
{"compound": "COCc1cc2c(cc1/C=C/[N+](=O)[O-])OCO2", "TGI": "> 100 µM"}
{"compound": "CC1C(=O)C(C)C(c2ccccc2)N(N=O)C1c1ccccc1 (stereo unspecified)", "TGI": "> 1000 µM"}
{"compound": "CN(C)CCOc1ccc2c(c1)C/C(=C/c1ncc([N+](=O)[O-])n1C)C2=O", "TGI": "> 22.6 µM"}
{"compound": "Cn1c(-c2ccc(/C=N\\N3CCN(/N=C/c4ccc(-c5c[n+]6ccccc6n5C)cc4)CC3)cc2)c[n+]2ccccc12", "TGI": "> 100 µM"}

* * *

Test system: KM12 colon
assay-remarks: NCI tumour cell line growth inhibition, 48 h
Reported TGI values follow for various molecules

{"molecule": "O=S1C2=C(Cc3ccccc3)C(Cc3ccccc3)=C1CCc1cccc(c1)CC2", "target-desc": "KM12 colon", "TGI": "26.7 µM"}
{"molecule": "O=C1C(Cl)=C(Nc2cccc(O)c2)C(=O)N1c1cc(Cl)c(Cl)cc1Cl", "target-desc": "KM12 colon", "TGI": "34.3 µM"}
{"molecule": "COC(=O)c1cc(C#Cc2cc(OC)ccc2OC)ccc1OC", "target-desc": "KM12 colon", "TGI": "> 100 µM"}
{"molecule": "CCOC(=O)CCC(NC(=O)c1ccc(N2CCN(c3c(C)nc(N)nc3N)CC2)cc1)C(=O)OCC (stereo unspecified)", "target-desc": "KM12 colon", "TGI": "> 100 µM"}
{"molecule": "CC(=O)c1cc([N+](=O)[O-])ccc1OCC(=O)O", "target-desc": "KM12 colon", "TGI": "> 100 µM"}
{"molecule": "Cc1nc2ccccc2c(=O)[nH]1", "target-desc": "KM12 colon", "TGI": "> 100 µM"}

* * *

Tested on: RPMI-8226 leukemia
assay-remarks: NCI tumour cell line growth inhibition, 48 h
We begin with a simple list: items and their reported TGI.

{"molecule": "CCN(CC)C(=S)SS(=O)(=O)c1ccc([N+](=O)[O-])cc1", "target-desc": "RPMI-8226 leukemia", "value-relation-sign": "=", "TGI / µM": 48.8}
{"molecule": "NC(=O)N1N=C2c3ccccc3SC[C@H]2[C@@H]1c1ccccc1", "target-desc": "RPMI-8226 leukemia", "value-relation-sign": "=", "TGI / µM": 87.5}
{"molecule": "C[C@H]1[C@H](C)CC[C@]2(C(=O)O)CC[C@]3(C)C(=CC[C@@H]4[C@@]5(C)C/C(=C/c6cccnc6)[C@H](O)C(C)(C)[C@@H]5CC[C@]43C)[C@H]12", "target-desc": "RPMI-8226 leukemia", "value-relation-sign": "=", "TGI / µM": 41.5}
{"molecule": "CN(C)c1ccc2cc(-c3ccccc3F)c(N)nc2c1", "target-desc": "RPMI-8226 leukemia", "value-relation-sign": "=", "TGI / µM": 17.7}
{"molecule": "Cn1nc(-c2ccccc2)c(C(=O)/C=C/c2ccccc2)c(N2CCOCC2)c1=O", "target-desc": "RPMI-8226 leukemia", "value-relation-sign": "=", "TGI / µM": 59.1}
{"molecule": "CCCCN(Cc1ccc(F)cc1)c1ccc(CO)c(Cl)c1", "target-desc": "RPMI-8226 leukemia", "value-relation-sign": "=", "TGI / µM": 36.3}
{"molecule": "COc1ccc2c3c(c(=O)n(C)c2c1OC)C=CC(C)(C)O3", "target-desc": "RPMI-8226 leukemia", "value-relation-sign": "=", "TGI / µM": 29.3}
{"molecule": "COc1cc(C2c3cc4c(cc3[C@@H](Nc3cccc(C(C)=O)c3)C3COC(=O)[C@H]23)OCO4)cc(OC)c1O (stereo not given in full)", "target-desc": "RPMI-8226 leukemia", "value-relation-sign": "=", "TGI / µM": 2.21}
{"molecule": "CC(CNC(Cc1ccccc1)c1ccccc1)NC(Cc1ccccc1)c1ccccc1 (stereo not given)", "target-desc": "RPMI-8226 leukemia", "value-relation-sign": "=", "TGI / µM": 4.88}
{"molecule": "Cn1c(-c2cccs2)cc(-c2cccs2)c1-c1ccsc1", "target-desc": "RPMI-8226 leukemia", "value-relation-sign": ">", "TGI / µM": 100}
